Test system: NCI-H292
Method Description: Cytotoxicity against human NCI-H292 cells assessed as reduction in cell viability after 24 hrs by MTT assay
Assay type: functional, cell-based
Study Conditions: NCI-H292, 24 h
The entries below are paired with their reported IC50.

See these solved cases before continuing.
- Compound: "COc1ccc(CNCc2ccc3c(c2)OCO3)cc1.Cl"
  IC50: "153 µM"
- Compound: "COc1cc(CNCc2ccc3c(c2)OCO3)cc(OC)c1OC.Cl"
  IC50: "> 200 µM"
- Compound: "COc1ccc(CNCc2ccc3c(c2)OCO3)cc1O"
  IC50: "> 200 µM"
- Compound: "COc1ccc2c(c[n+](C)c3c4cc5c(cc4ccc23)OCO5)c1OC [CHELERYTHRINE]"
  IC50: "4.96 µM"
- Compound: "Cl.c1ccc(CNCc2ccc3c(c2)OCO3)cc1"
  IC50: "> 200 µM"

Item under review: COc1ccc(CNCc2ccc3c(c2)OCO3)cc1OC.Cl . Reported IC50?
> 200 µM

Moving on to the next compound: COc1ccc(CN(C)Cc2ccc3c(c2)OCO3)cc1.Cl
> 200 µM

Moving on to the next compound: CN(Cc1ccccc1)Cc1ccc2c(c1)OCO2.Cl
> 200 µM

Moving on to the next compound: COc1cc(CN(C)Cc2ccc3c(c2)OCO3)cc(OC)c1OC
> 200 µM

Moving on to the next compound: Cl.Oc1ccc(CNCc2ccc3c(c2)OCO3)cc1O
> 200 µM

Moving on to the next compound: COc1ccc(CN(C)Cc2ccc3c(c2)OCO3)cc1OC
> 200 µM

Data origin, for the record: ChEMBL document CHEMBL4477272
